Target: T1, human FSTL1 (construct not stated) (human, UniProt Q12841 21-308)
T1 construct: also called human FSTL1 antigen; FSTL1 (R&D Systems, Inc. Cat#1694-FN-050)
T1 sequence: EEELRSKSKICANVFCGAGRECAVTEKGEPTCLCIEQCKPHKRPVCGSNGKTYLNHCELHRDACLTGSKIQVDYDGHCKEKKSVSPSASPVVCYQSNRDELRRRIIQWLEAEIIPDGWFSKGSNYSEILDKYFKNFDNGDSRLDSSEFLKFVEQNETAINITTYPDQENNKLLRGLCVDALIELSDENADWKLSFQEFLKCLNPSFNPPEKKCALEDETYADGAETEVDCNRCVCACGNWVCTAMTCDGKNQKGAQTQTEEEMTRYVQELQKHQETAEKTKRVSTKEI
Assay: SPR (Biacore T-200), antibody on Human Antibody Capture Kit, human FSTL1 0 to 20 µg/ml
property: Kd (nM)
Numbers only here, please. The scale is nM.

Recorded Kd of humanized #6-55 antibody H(2)-L(2) (IgG1 type) (antibody, V domains shown, Human IgG1 constant region; expressed in HEK293; also called h#6-55 H(2)-L(2)) VH: EVQLLESGGGLVQPGGSLRLSCAASGFTFSSVTMQWVRQAPGKGLEFVSSVCSGSSTYYAPAVKGRFTISRDNSKNTVYLQMNSLRAEDTAVYYCAKIAGRARWSCTSAAYNIDAWGQGTLVTVSS VL: SYELTQPPSVSVSPGQTARITCSGGGNNYGWYQQKPGQAPVTVIYYNDNRPSGIPERFSGSTSGSTTTLTISGVQAEDEADYYCGSWDSNTDSGIFGGGTKLTVLG , please. 11.3
